Hello, the source for this data is PubChem BioAssay (NCI), in case you need it.

Test system: HL-60(TB) leukemia
experiment: NCI tumour cell line growth inhibition, 48 h; in the data active = GI50 below about 0.43 µM; inactive = the rest
Outcomes you can answer with include only these: Yes for active, No for inactive

Worked cases, answers included:
Task: Please state the recorded outcome for this compound: CCC[CH2][Sn]([Cl])([CH2]CCC)[CH2]CCC
Result: Yes

Task: Please state the recorded outcome for this compound: COc1cccc2c1C(=O)c1c(O)c3c(c(O)c1C2=O)C[C@](O)(C(=O)CO)C[C@H]3O[C@@H]1C[C@@H](NC(=O)CCCCCN(C)C2(c3ccc(F)cc3)CC3CCC2C3)[C@H](O)[C@@H](C)O1 (stereo partly drawn)
Result: No

Task: Please state the recorded outcome for this compound: O=C(CSc1nc2ccccc2nc1-c1ccccc1)Nc1ccc(F)cc1
Result: No

Task: Please state the recorded outcome for this compound: O=C1/C(=C/c2cccc(Cl)c2Cl)N=C(c2ccccc2)N1C1CC1
Result: No

Task: Please state the recorded outcome for this compound: COc1cc(F)ccc1-c1ncnc(Nc2cccc(CS(C)(=N)=O)c2)n1 (stereo not drawn)
Result: Yes

More entries:
Task: Please state the recorded outcome for this compound: C=C(C)[C@@H]1CC[C@]2(C(=O)NC3CCCCC3)CC[C@]3(C)[C@H](CC[C@@H]4[C@@]5(C)CCCNC(C)(C)[C@@H]5CC[C@]43C)[C@@H]12
Result: No

Task: Please state the recorded outcome for this compound: C=CCCCCOc1ccccc1-c1cnc(OCCCCC=C)n1C
Result: No

Task: Please state the recorded outcome for this compound: COc1ccc(-c2nc3ccc(-c4nc5ccc(N6CCN(c7ccccc7)CC6)cc5[nH]4)cc3[nH]2)cc1OC
Result: No

---

System: SF-268 CNS
experiment: NCI tumour cell line growth inhibition, 48 h
measuredParameter: TGI

As a guide, the following entries are already answered.
Task: Given CCOC(=O)Nc1ccc(C)c(NC(=O)OCC)c1 , state its recorded TGI.
Result: > 100 µM

Task: Given Cn1ccc(C(=O)NCCN(CCNC(=O)c2ccn(C)c(=O)c2O)CCNC(=O)c2cccc(=O)n2O)c(O)c1=O , state its recorded TGI.
Result: > 100 µM

Task: Given CCOc1ccc(NC(=O)C(=O)CC(=O)c2c(C)n([O-])c3ccccc3[n+]2=O)cc1 , state its recorded TGI.
Result: > 100 µM

Task: Given O=C(O)C(NCc1ccccc1)C(NCc1ccccc1)C(=O)O (stereo unspecified) , state its recorded TGI.
Result: > 100 µM

More entries:
Task: Given O=C(CSc1nc2ccccc2nc1-c1ccccc1)Nc1ccc(F)cc1 , state its recorded TGI.
Result: > 100 µM

Task: Given CN(C)C1(N(C)C)Oc2c(c(=O)n(C)c(=O)n2C)C(c2ccccc2)C1(F)F (stereo unspecified) , state its recorded TGI.
Result: > 100 µM

---

Test system: COLO 205 colon
experiment: NCI tumour cell line growth inhibition, 48 h
measuredParameter: TGI (µM)
Your answer is read as µM, so omit the unit and give the number.

As a guide, the following entries are already answered.
Task: Given COC(=O)C1=C(O)C(C(=O)OC)[C@]2(O)[C@H](C(=O)OC)[C@H]1C[C@@H](c1ccc(C(F)(F)F)cc1)[C@H]2C(=O)OC (some centres undefined) , state its recorded TGI.
Result: 11.5

Task: Given COc1cc(Cn2c(-c3ccccc3)c(Cl)c3c2-c2oncc2CC3)cc(OC)c1 , state its recorded TGI.
Result: 30.6

More entries:
Task: Given CCC(C)OC(=O)/C(Br)=C1/OC(=O)c2ccccc2-c2ccccc21 (centres undefined) , state its recorded TGI.
Result: 38.1

Task: Given CN(C)CCCN1CCC2(CCC(C(C)(C)C)CC2)CC1 , state its recorded TGI.
Result: 3.04

Task: Given COc1cccc2c1C(=O)c1c(O)c3c(c(O)c1C2=O)C[C@](O)(C(=O)CO)C[C@H]3O[C@@H]1C[C@@H](NC(=O)CCCCCN(C)C2(c3ccc(F)cc3)CC3CCC2C3)[C@H](O)[C@@H](C)O1 (some centres undefined) , state its recorded TGI.
Result: 1.65

Task: Given Oc1cccnc1[Se] , state its recorded TGI.
Result: 35

Task: Given COc1cc(-c2cc(-c3cc4c([nH]c5ccccc54)c(-c4cc(OC)c(OC)c(OC)c4)n3)cc(-c3ccccc3)n2)cc(OC)c1OC , state its recorded TGI.
Result: 21.9

Task: Given NCc1ccccc1-c1c2nc(c(-c3ccccc3CN)c3ccc([nH]3)c(-c3ccccc3CN)c3nc(c(-c4ccccc4CN)c4ccc1[nH]4)C=C3)C=C2 , state its recorded TGI.
Result: 97.7

Task: Given O=C1CCCC1CN1CCCC1 (centres undefined) , state its recorded TGI.
Result: 8.74

Task: Given O=[N+]([O-])c1ccc2c(c1)C1=C(CO2)Cc2ccccc2O1 , state its recorded TGI.
Result: 30.6

Task: Given C/C=C(/C)C(=O)O[C@@H]1CCN2CC[C@H](COC(=O)/C(=C/C)CO)C12 (some centres undefined) , state its recorded TGI.
Result: 42.7

Task: Given CN1CCN(C(=S)N2CCN(C)CC2)CC1 , state its recorded TGI.
Result: 9.45

Task: Given COc1ccc2[nH]cc(C3(c4c[nH]c5ccc(OC)cc45)C(=O)Nc4ccc(F)cc43)c2c1 , state its recorded TGI.
Result: 3.05

Task: Given O=C(N[C@@H](c1ccc(Cl)c(Cl)c1)C1CNC1)c1ccc2cnccc2c1 , state its recorded TGI.
Result: 1.29

Task: Given C=C(Cl)C(Br)(CCl)CCC(Br)C(C)(C)Cl (centres undefined) , state its recorded TGI.
Result: 4.64

Task: Given CN1C(=O)N(C)C2C1NN=c1s/c(=C\c3ccc(Cl)cc3Cl)c(=O)n12 (centres undefined) , state its recorded TGI.
Result: 2.58

---

System: NCI/ADR-RES ovarian
experiment: NCI tumour cell line growth inhibition, 48 h
measuredParameter: TGI (µM)
Your answer is read as µM, so omit the unit and give the number.

Task: Given CC1OC(OC2C(O)COC(OC3C(C)OC(OC4C(OC(=O)[C@]56CCC(C)(C)C[C@@H]5C5=CCC7[C@@]8(C)C[C@H](O)[C@H](OC9OC(CO)C(O)C(O)C9O)[C@@](C)(CO)[C@@H]8CC[C@@]7(C)[C@]5(C)CC6)OCC(O)C4O)C(O)C3OC3OCC(O)(CO)C3O)C2O)C(O)C(O)C1O (some centres not stated) , state its recorded TGI.
Result: 41.7

---

Entries and their TGI values follow.
System: HT29 colon
experiment: NCI tumour cell line growth inhibition, 48 h

Task: Given S=c1sc2c(Cl)nc(Cl)nc2n1-c1ccccc1 , state its recorded TGI.
Result: > 100 µM

More entries:
Task: Given Cc1nc2c(nc1C)-c1[nH]c3c(c1C(=O)C2=O)CCCC3=O , state its recorded TGI.
Result: 16.2 µM

Task: Given COC(=O)/C=C(\C)CC(O)/C=C(\C)CCC=C(C)C (stereo unspecified) , state its recorded TGI.
Result: 59.2 µM

Task: Given CC(=O)Oc1ccc2c(C)cc(=O)oc2c1OC(C)=O , state its recorded TGI.
Result: > 100 µM

Task: Given N#CCCN(C(=O)Nc1ccccc1)[C@H]1CCCC[C@@H]1N(C(=O)Nc1ccccc1)c1ccccc1 , state its recorded TGI.
Result: > 100 µM

Task: Given CN(C)CCCC12CCCCC1=Nc1ccccc12 (stereo unspecified) , state its recorded TGI.
Result: > 100 µM

---

Tested on: MDA-N
experiment: NCI tumour cell line growth inhibition, 48 h
Entries and their TGI values follow.
Your answer is read as µM, so omit the unit and give the number.

Task: Given COc1cc(NS(C)(=O)=O)ccc1Nc1c2ccccc2nc2c1[nH]c1ccc(NC3OC(CO)C(O)C(O)C3O)cc12 (stereo not given) , state its recorded TGI.
Result: 2.71

Please find the next compound below.
Task: Given CC(=O)c1[nH]c(NCc2ccccc2)c(C(=S)Nc2ccccc2)c1N , state its recorded TGI.
Result: 39.1

---

Tested on: NCI-H23 lung
experiment: NCI tumour cell line growth inhibition, 48 h
measuredParameter: TGI

As a guide, the following entries are already answered.
Task: Given Cc1ncc(C(=O)Nc2ccc(CN3CCN(C)CC3)c(C(F)(F)F)c2)cc1C#Cc1cnc(N)c2ccncc12 , state its recorded TGI.
Result: 3.35 µM

Task: Given CC(=O)c1[nH]c(NCc2ccccc2)c(C(=S)Nc2ccccc2)c1N , state its recorded TGI.
Result: > 100 µM

Task: Given O=c1[nH]nc(Cc2ccccc2)n1/N=C/c1ccccc1O , state its recorded TGI.
Result: > 100 µM

Task: Given C1=CC(N(c2ccccc2)C2C=CCCC2)CCC1 (centres undefined) , state its recorded TGI.
Result: > 100 µM

Task: Given Nc1ncnc2c1ncn2[C@@H]1C[C@@H]1CO , state its recorded TGI.
Result: > 100 µM

More entries:
Task: Given O=C(N[C@@H](c1ccc(Cl)c(Cl)c1)C1CNC1)c1ccc2cnccc2c1 , state its recorded TGI.
Result: 10.8 µM

Task: Given CCCNC(=S)NNC(=O)CSc1nc(-c2ccccc2)c(-c2ccccc2)[nH]1 , state its recorded TGI.
Result: > 100 µM

Task: Given COc1ccc(NC(=O)/C(Cc2cc(=O)oc3cc(O)ccc23)=N\NC(C)(C)C)c(OC)c1 , state its recorded TGI.
Result: > 100 µM

Task: Given O=C(/C=C/c1cc2ccccc2o1)N1CCN(c2ccccn2)CC1 , state its recorded TGI.
Result: > 100 µM

Task: Given COc1cc(-n2cc(-c3ccc(F)cc3)[nH]c2=O)cc(OC)c1OC , state its recorded TGI.
Result: > 100 µM
